Ref: ChEMBL document CHEMBL3885861

# Species: Rattus norvegicus
# procedure text: Open TG-GATES - Regimen: Single
# Type: toxicity, organism-based, Sprague-Dawley
# Design: regimen Single, gender Male, age 6 weeks
# protocol conditions: in vivo, po, 0 mg/kg, 9 h, tissue Plasma, route gavage, dose level Control
measurement kind: ALT (IU/L)
Give just the numeric value; IU/L need not be written.

A selection of reference data follows.
Req: Entry under review: COc1cc([C@@H]2c3cc4c(cc3[C@@H](O[C@@H]3O[C@@H]5CO[C@@H](C)O[C@H]5[C@H](O)[C@H]3O)[C@H]3COC(=O)[C@H]23)OCO4)cc(OC)c1O [ETOPOSIDE] . Reported ALT?
Resp: 29.8

Req: Consider next the compound C#C[C@]1(O)CC[C@H]2[C@@H]3CCC4=Cc5oncc5C[C@]4(C)[C@H]3CC[C@@]21C [DANAZOL] in the same way.
Resp: 33.2

Req: Consider next the compound CC(CN1c2ccccc2Sc2ccccc21)N(C)C (centres undefined) [PROMETHAZINE] in the same way.
Resp: 38.8

Req: Consider next the compound Cc1cccc(Nc2ccccc2C(=O)O)c1C [MEFENAMIC ACID] in the same way.
Resp: 32.6

New cases:
Req: Entry under review: CN(C)[C@@H]1C(O)=C(C(N)=O)C(=O)[C@@]2(O)C(O)=C3C(=O)c4c(O)cccc4[C@@](C)(O)[C@H]3C[C@@H]12 [TETRACYCLINE] . Reported ALT?
Resp: 32.6

Req: Consider next the compound CN1C(C(=O)Nc2ccccn2)=C(O)c2sc(Cl)cc2S1(=O)=O [LORNOXICAM] in the same way.
Resp: 33.2

Req: Consider next the compound `CCOC(=O)[C@H](CCc1ccccc1)N[C@@H](C)C(=O)N1CCC[C@H]1C(=O)O` in the same way.
Resp: 31.2

Req: Consider next the compound Clc1c(Cl)c(Cl)c(Cl)c(Cl)c1Cl [PERCHLOROBENZENE] in the same way.
Resp: 28.4

Req: Consider next the compound C1CCC(C(CC2CCCCN2)C2CCCCC2)CC1 (centres undefined) [PERHEXILINE] in the same way.
Resp: 33.8
